# TARGET SYSTEM: recombinant human Meningioma Expressed Antigen 5 (MGEA5), also referred to as O-GlcNAcase (OGA) (Homo sapiens)
# Construct: Full length OGA enzyme was purchased at OriGene (cat #TP322411); purchased OriGene TP322411
# Sequence (O60502 1-916): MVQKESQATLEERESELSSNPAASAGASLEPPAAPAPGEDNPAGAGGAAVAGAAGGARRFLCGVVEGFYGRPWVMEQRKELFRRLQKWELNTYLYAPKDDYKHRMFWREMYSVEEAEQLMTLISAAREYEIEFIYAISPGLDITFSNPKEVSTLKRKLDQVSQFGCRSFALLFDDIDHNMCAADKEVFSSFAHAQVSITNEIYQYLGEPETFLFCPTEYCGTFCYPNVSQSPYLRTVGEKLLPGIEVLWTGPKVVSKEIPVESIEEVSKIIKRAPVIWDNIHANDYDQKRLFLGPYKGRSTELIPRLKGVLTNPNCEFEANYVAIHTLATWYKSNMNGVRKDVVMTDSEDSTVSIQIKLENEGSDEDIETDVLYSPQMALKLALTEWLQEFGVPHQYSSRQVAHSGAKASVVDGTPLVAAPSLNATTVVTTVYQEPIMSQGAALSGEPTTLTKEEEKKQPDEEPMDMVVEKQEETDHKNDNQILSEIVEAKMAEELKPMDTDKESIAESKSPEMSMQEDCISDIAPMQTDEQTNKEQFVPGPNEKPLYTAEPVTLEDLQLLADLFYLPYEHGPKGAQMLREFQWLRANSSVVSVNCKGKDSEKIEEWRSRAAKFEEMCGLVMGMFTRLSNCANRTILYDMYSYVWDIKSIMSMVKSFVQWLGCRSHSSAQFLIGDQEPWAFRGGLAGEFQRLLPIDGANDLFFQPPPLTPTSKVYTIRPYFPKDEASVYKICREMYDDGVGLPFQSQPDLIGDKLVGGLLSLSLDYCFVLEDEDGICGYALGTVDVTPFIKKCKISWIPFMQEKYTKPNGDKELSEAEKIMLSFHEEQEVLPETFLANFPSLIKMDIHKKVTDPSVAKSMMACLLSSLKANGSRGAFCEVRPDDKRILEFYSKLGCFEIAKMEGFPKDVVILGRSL
# ASSAY REMARKS: OGA biochemical assay (inhibition of FM-GlcNAc hydrolysis, fluorescence)
# MEASUREMENT PARAMETERS: FM-GlcNAc substrate, 6 h at room temperature, read-out: Enzymatic hOGA, pIC50 (converted)
Could you mark each record t if its IC50 falls strictly under 30 nM, and f if it equals or exceeds it?

Some solved cases for reference:
Could you please tell me whether IC50 recorded for Cc1cc(C[C@@H]2CCN(C(C)c3nc4nc(C)sc4cc3F)C2)cc(C)n1 (single isomer, unassigned) [Compound 94] is less than 30 nM?
f

Decide: IC50 of Cc1cc(NCC2CCCN(C(C)c3ccc4sc(C)nc4n3)C2)cc(C)n1 (stereo not shown) [Compound 105] strictly below 30 nM?
f

In plain terms, does Cc1cc(C[C@H]2CCCN(C(C)c3ccc4cn(C)nc4n3)C2)cc(C)n1 (mixture of isomers) [Compound 12ab] come in under 30 nM for IC50?
t

Determine if Cc1cc(C[C@H]2CCN(C(C)c3cnc4nc(C)oc4c3)C2)cc(C)n1 (stereo partly shown) shows IC50 strictly lower than 30 nM.
f

Lab note: confirm whether the reported IC50 for this molecule is below 30 nM, equality not counting. molecule: Cc1cc(C[C@H]2CCCN([C@H](C)c3ccc4cn(C)nc4n3)C2)cc(C)n1 (relative stereo) [Compound 12b]
t

New cases:
Given Cc1cc(OC[C@H]2CCCN(C(C)c3ccc4sc(C)nc4n3)C2)cc(C)n1 (mixture of isomers) [Compound 46ab] , is recorded IC50 strictly lower than 30 nM?
t

State whether 30 nM exceeds IC50 recorded for Cc1cc(C[C@@H]2CCN(C(C)c3ccc4oc(C)nc4n3)C2)cc(C)n1 (mixture of isomers) .
f

###

EC50 values, listed per item
# TARGET SYSTEM: OGA (Homo sapiens)
# Construct: HEK293 cells inducible for P301L mutant human Tau (isoform 2N4R) were established at Janssen; endogenous in cells; host or cells: HEK293 cells inducible for P301L mutant human Tau (2N4R)
# Sequence (O60502 1-916): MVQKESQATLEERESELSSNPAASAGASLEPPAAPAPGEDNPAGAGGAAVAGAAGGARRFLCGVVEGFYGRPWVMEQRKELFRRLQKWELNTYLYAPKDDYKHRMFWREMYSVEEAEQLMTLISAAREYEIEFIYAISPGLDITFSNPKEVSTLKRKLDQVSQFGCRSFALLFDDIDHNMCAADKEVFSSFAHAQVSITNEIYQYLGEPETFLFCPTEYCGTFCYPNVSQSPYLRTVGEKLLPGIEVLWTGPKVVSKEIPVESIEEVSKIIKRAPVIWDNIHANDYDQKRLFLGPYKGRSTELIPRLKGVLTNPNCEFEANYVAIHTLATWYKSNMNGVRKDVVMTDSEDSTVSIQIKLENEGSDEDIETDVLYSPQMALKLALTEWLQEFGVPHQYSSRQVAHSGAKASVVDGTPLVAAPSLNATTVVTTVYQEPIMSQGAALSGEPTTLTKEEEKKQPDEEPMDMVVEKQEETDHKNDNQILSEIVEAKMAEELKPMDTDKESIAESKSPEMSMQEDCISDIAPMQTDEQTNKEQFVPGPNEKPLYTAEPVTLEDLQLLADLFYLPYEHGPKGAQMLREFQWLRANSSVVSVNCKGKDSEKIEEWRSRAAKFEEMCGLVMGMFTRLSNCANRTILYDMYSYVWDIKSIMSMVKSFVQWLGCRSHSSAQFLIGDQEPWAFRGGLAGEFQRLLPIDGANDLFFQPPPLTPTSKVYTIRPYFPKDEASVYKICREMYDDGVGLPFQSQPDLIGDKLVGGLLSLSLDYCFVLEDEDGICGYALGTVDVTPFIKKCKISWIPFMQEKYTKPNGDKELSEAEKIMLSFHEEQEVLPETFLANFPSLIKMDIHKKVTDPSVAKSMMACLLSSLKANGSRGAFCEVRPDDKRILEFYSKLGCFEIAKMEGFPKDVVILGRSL
# ASSAY REMARKS: OGA cellular assay (ICC detection of O-GlcNAcylated proteins in HEK293 cells inducible for P301L mutant human Tau)
# Format: cell-based
# MEASUREMENT PARAMETERS: HEK293 cells inducible for P301L mutant human Tau, 6 hours incubation; read-out: Cellular hOGA; pEC50 (converted)
The answer is to be given in nM; state only the numeric part.

Worked cases, answers included:
Return reported EC50; argument: Cc1cc(C[C@H]2CCCN(C(C)c3ccc4oc(C)nc4n3)C2)cc(OC(F)(F)F)n1 (mixture of isomers) [Compound 25ab]
200

Any idea what EC50 was measured for Cc1cc(O[C@@H]2CCN(C(C)c3cc4nc(C)sc4cc3F)C2)cc(C)n1 (stereo partly shown) [Compound 88] ?
251

Would you mind telling me what EC50 value was observed for Cc1cc(OC[C@H]2CCCN(C(C)c3cc4nc(C)sc4cc3F)C2)cc(C)n1 (stereo partly shown) [Compound 98] ?
12.6

Reported EC50 for Cc1cc(C[C@@H]2CCN(C(C)c3nc4nc(C)sc4cc3F)C2)cc(C)n1 (single isomer, unassigned) [Compound 93] : what is it?
39.8

Given the entry Cc1cc(C[C@H]2CCCN(C(C)c3cnc4oc(C)nc4c3)C2)cc(C)n1 (mixture of isomers) [Compound 30] , report its measured EC50.
200

---
Which EC50 value belongs to Cc1cc([C@H]2CCCN(C(C)c3nc4nc(C)sc4cc3F)C2)cc(C)n1 (single isomer, unassigned) [Compound 85] ?
10

# input compound: COc1cc(NC[C@H]2CCCN(C(C)c3ccc4sc(C)nc4n3)C2)cc(C)n1 (stereo partly shown) [Compound 109] ; wanted: its EC50
10

Need EC50, item Cc1cc(OC[C@H]2CCCN(C(C)c3nc4nc(C)sc4cc3F)C2)cc(C)n1 (stereo partly shown) [Compound 91]
7.94

I'd like to know its EC50. The compound in question is Cc1cc(C[C@H]2CCN(C(C)c3cnc4nc(C)oc4c3)C2)cc(C)n1 (stereo partly shown) [Compound 63]
158

###

# TARGET SYSTEM: recombinant human Meningioma Expressed Antigen 5 (MGEA5), also referred to as O-GlcNAcase (OGA) (Homo sapiens)
# Construct: Full length OGA enzyme was purchased at OriGene (cat #TP322411); purchased OriGene TP322411
# ASSAY REMARKS: OGA biochemical assay (inhibition of FM-GlcNAc hydrolysis, fluorescence)
# MEASUREMENT PARAMETERS: FM-GlcNAc substrate, 6 h at room temperature, read-out: Enzymatic hOGA, pIC50 (converted)
As shown below, each of these compounds has a reported IC50 value.

For `Cc1cc(C[C@H]2CCCN(Cc3ccc4[nH]c(C)nc4n3)C2)cc(C)n1` , what is its reported IC50?
0.2 µM

// query IC50 value for entry Cc1cc(C[C@H]2CCCN([C@H](C)c3ccc4oc(C)nc4n3)C2)cc(C(F)(F)F)n1 [Compound 24a]
0.00794 µM

Which IC50 reading was recorded for the compound Cc1cc(C[C@H]2CCCN(C(C)c3ccc4oc(C)nc4n3)C2)cc(C(F)(F)F)n1 (mixture of isomers) [Compound 24ab] ?
0.0126 µM

Shift focus to the following entry.
What measured IC50 goes with Cc1cc(C[C@H]2CCCN(C(C)c3cnc4[nH]c(C)nc4c3)C2)cc(C)n1 (single isomer, unassigned) [Compound 6a] ?
1.58 µM

Sourced from patent US20210115040A1
